// data source = BindingDB's records for doi:10.3109/14756366.2010.548330

molecular target: cDNA, FLJ78895, highly similar to 3-oxo-5-alpha-steroid 4-dehydrogenase 1 (Homo sapiens, UniProt B7Z4L2)
Sequence (B7Z4L2 whole entry): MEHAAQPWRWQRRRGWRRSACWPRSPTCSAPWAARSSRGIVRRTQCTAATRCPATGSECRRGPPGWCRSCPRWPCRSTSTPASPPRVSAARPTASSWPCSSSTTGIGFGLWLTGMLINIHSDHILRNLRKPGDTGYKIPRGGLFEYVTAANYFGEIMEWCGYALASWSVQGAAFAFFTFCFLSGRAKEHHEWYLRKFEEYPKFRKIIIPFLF
pIC50: −log10 of the molar value.
Reported pIC50 is given for each of the following molecules.
OUTCOME_MEASURE: pIC50

In [3]: df
Out[3]:
                                   molecule  recorded_measurement
0  CC(=O)O[C@]1(C(C)=O)CCC2C3CCC4=CC(=O)CCC4(C)C3CCC21C (some centres not stated) [3,20-Dioxopregn-4-ene-17-yl acetate (4)]                  6.30
1  CCc1ccc(C(=O)O[C@]2(C(C)=O)CCC3C4CCC5=C(Cl)C(=O)CCC5(C)C4CCC32C)cc1 (some centres not stated)                  7.14
2  CC(=O)[C@@]1(O)CCC2C3CCC4=C(Cl)C(=O)CCC4(C)C3CCC21C (some centres not stated)                  7.20
3  CCc1ccc(C(=O)O[C@]2(C(C)=O)CCC3C4CCC5=C(Br)C(=O)CCC5(C)C4CCC32C)cc1 (some centres not stated)                  7.30
4  CC(=O)[C@@]1(O)CCC2C3CCC4=CC(=O)CCC4(C)C3CCC21C (some centres not stated)                  8.70
5  CC(=O)[C@@]1(O)CCC2C3CCC4=C(Br)C(=O)CCC4(C)C3CCC21C (some centres not stated)                  8.80
6  CC(C)(C)NC(=O)[C@H]1CC[C@H]2[C@@H]3CC[C@H]4NC(=O)C=C[C@]4(C)[C@H]3CC[C@]12C                  8.89
